target: Angiopoietin-2 (human) (Homo sapiens (Human), UniProt O15123 19-496); assay: SPR; TBS pH 7.4, 25 C; conditions: label: 5'-biotin (5'-A5 is a spacer)
Sequence (O15123 19-496): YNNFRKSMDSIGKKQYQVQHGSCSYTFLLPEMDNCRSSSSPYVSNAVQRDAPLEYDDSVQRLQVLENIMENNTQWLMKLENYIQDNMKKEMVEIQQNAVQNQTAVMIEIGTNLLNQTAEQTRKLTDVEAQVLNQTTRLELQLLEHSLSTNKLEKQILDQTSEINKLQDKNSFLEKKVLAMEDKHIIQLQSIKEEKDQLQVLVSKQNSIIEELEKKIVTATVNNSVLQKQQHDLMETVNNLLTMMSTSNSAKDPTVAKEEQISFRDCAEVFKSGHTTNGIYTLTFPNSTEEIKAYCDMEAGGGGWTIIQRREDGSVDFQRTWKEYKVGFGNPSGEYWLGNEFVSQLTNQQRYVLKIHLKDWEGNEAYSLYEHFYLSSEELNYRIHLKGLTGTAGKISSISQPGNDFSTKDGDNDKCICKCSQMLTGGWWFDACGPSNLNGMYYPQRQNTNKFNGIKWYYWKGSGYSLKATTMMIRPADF
property.name: Kd (nM)

[[record]]
binder = "AAAAAACUCGAACAUUUCCACUAACCAACCAUACUAAAGCACCGC (ssRNA) [Seq16 (Ang1 aptamer / negative control)]"
property_name = "Kd"
measured_number = 3030

[[record]]
binder = "AAAAAACUAGCCUCAUCAGCUCAUGUGCCCCUCCGCCUGGAUCAC (ssRNA) [Seq1]"
property_name = "Kd"
measured_number = 138

